# ASSAY: Tmax in Sprague-Dawley rat at 10 mg/kg, po by LC-MS analysis
# Type: ADME, organism-based
# CONDITION: in vivo
QUANTITY NAME: Tmax (h)

> print(dat)
                                  structure  quantity.name  numeric.value
1  Cc1cccc(C)c1-c1cccc(COc2ccc([S@@+]([O-])CC(=O)O)cc2)c1           Tmax              2

====

# ASSAY: Oral bioavailability in Sprague-Dawley rat […] by LC-MS analysis
# Assay type: ADME, organism-based
# CONDITION: in vivo
QUANTITY NAME: bioavailability (%)

> print(dat)
                                  structure  numeric.value
1  Cc1cccc(C)c1-c1cccc(COc2ccc([S@@+]([O-])CC(=O)O)cc2)c1           87.5

====

Some compounds, each annotated with its measured EC50.
# TARGET ENTITY: Free fatty acid receptor 1 (Homo sapiens, UniProt O14842)
# Sequence (O14842 whole entry): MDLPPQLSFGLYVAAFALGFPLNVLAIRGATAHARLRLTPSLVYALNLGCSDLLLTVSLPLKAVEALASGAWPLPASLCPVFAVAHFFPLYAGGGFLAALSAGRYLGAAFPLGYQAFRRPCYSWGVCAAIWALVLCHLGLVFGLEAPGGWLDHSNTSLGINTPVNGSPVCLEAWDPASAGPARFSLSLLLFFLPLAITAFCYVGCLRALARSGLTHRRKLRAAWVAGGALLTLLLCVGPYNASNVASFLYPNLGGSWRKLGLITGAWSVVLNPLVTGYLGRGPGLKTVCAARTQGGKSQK
# ASSAY: Agonist activity at human GPR40 expressed in HEK293 cells by Fluo4-AM dye based intracellular calcium flux assay
QUANTITY NAME: EC50

> print(dat)
                                   compound   result
1  COc1ccc(F)c(-c2cccc(COc3ccc(S(=O)(=O)CC(=O)O)cc3)c2)c1  2900 nM
2  Cc1cc(OCC2(C)COC2)cc(C)c1-c1cccc(COc2ccc([S+]([O-])CC(=O)O)cc2)c1 (racemic)  62.8 nM
3    Cc1ccccc1C#Cc1ccc(S(=O)(=O)CC(=O)O)cc1  4880 nM
4  Cc1cnccc1-c1cccc(COc2ccc([S+]([O-])CC(=O)O)cc2)c1 (racemic)  2000 nM
5  O=C(O)C[S+]([O-])c1ccc(OCc2cccc(-c3ccncc3Cl)c2)cc1 (racemic)  1000 nM
6  Cc1cccc(C)c1-c1ccc(COc2ccc([S+]([O-])CC(=O)O)cc2)cc1 (racemic)   454 nM
7  Cc1cncc(C)c1-c1cccc(COc2ccc([S+]([O-])CC(=O)O)cc2)c1 (racemic)  3100 nM
8  Cc1cccc(C)c1-c1ccc(COc2ccc(S(=O)(=O)CC(=O)O)cc2)cc1   716 nM
9  Cc1noc(C)c1-c1cccc(COc2ccc([S+]([O-])CC(=O)O)cc2)c1 (racemic)  5380 nM

====

# ASSAY: Cmax in Sprague-Dawley rat at 10 mg/kg, po by LC-MS analysis
# Assay type: ADME, organism-based
# Parameters: dose 10 mg/kg, route po
# CONDITION: in vivo
QUANTITY NAME: Cmax

> print(dat)
                                  structure  quantity.name      result
1  Cc1cccc(C)c1-c1cccc(COc2ccc([S@@+]([O-])CC(=O)O)cc2)c1           Cmax  1.23 µg/mL

====

# ASSAY: MRTlast in Sprague-Dawley rat at 10 mg/kg, po by LC-MS analysis
# Assay type: ADME, organism-based
# CONDITION: in vivo
QUANTITY NAME: MRT last

> print(dat)
                                  structure  result
1  Cc1cccc(C)c1-c1cccc(COc2ccc([S@@+]([O-])CC(=O)O)cc2)c1   4.5 h
